Listing: ADCC on L-428 cells, Max. Killing (%; nM IgG) of selected binders
Molecular target: T1, human CC chemokine receptor 4 (CCR4) (human, UniProt P51679 1-360)
T1 sequence (looked up): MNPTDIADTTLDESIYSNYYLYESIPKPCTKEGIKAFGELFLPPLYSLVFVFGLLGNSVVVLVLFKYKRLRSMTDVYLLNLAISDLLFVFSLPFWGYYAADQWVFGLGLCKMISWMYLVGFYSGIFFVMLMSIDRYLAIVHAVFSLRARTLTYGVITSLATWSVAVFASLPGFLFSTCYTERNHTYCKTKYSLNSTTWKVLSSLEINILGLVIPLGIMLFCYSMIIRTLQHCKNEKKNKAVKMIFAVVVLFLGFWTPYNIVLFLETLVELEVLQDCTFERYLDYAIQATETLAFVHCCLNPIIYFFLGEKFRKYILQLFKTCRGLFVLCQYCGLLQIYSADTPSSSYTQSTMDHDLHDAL
Test: cell-based or functional assay

These solved cases illustrate the format of a correct answer.
{"columns": ["binder", "experimental_value"],
 "data": [
  ["IgG form of antibody 306 (defucosylated IgG1) (antibody, V domains shown, Human IgG1, lambda light chain; produced in presence of Kifunensine (defucosylated); Biotinylated via cysteines for the human serum experiment) VH: QVQLVQSGAEVKKPGSSVKVSCKASGGTFSSYAMSWVRQAPGQGLEWMGGIIPIFGTVNYAQKFQGRVTMTRDTSTSTVYMELSSLRPDDTAVYYCARRGGSYFDYWGQGTLVTVSS VL: SYVLTQPPSASGTPGQSVTISCSGSTSNIGSHYVSWYQQLPGTAPRLLIYRNHQRPSGVPDRLSGSKSGTSASLAISGLRSEDEADYYCAVWDAKYRGWVFGGGTKLTVLG", "88 % (at 7 nM IgG)"],
  ["IgG form of antibody 503 (defucosylated IgG1) (antibody, V domains shown, Human IgG1, lambda light chain; produced in presence of Kifunensine (defucosylated); Biotinylated via cysteines for the human serum experiment) VH: QVQLVQSGAEVKKPGSSVKVSCKASEGTFSSYAMSWVRQAPGQGLEWMGGIIPIFGTVNYAQKFQGRVTMTRDTSTSTVYMELSSLRSDDTAVYYCARRRGAKFDYWGQGTLVTVSS VL: SYVLTQPPSASGTPGQSVTISCSGSTSNIGSHYVVWYQQLPGTAPRLLIYRNHQRPSGVPDRLSGSKSGTSASLAIGGLRSEDEADYYCAVWDDTLSGWVFGGGTKLTVLG", "93 % (at 7 nM IgG)"],
  ["KW0761 IgG (antibody, V domains shown) VH: EVQLVESGGDLVQPGRSLRLSCAASGFIFSNYGMSWVRQAPGKGLEWVATISSASTYSYYPDSVKGRFTISRDNAKNSLYLQMNSLRVEDTALYYCGRHSDGNFAFGYWGQGTLVTVSS VL: DVLMTQSPLSLPVTPGEPASISCRSSRNIVHINGDTYLEWYLQKPGQSPQLLIYKVSNRFSGVPDRFSGSGSGTDFTLKISRVEAEDVGVYYCFQGSLLPWTFGQGTKVEIK", "84 % (at 7 nM IgG)"]
]}

Here is another binder to look at.
ADCC on L-428 cells, Max. Killing (%; nM IgG) reported for this binder IgG form of antibody 406 (defucosylated IgG1) (antibody, V domains shown, Human IgG1, lambda light chain; produced in presence of Kifunensine (defucosylated); Biotinylated via cysteines for the human serum experiment) VH: QVQLVQSGAEVKKPGSSVKVSCKASEGTFSSYAMSWVRQAPGQGLEWMGGIIPIFGTVNYAQKFQGRVTMTRDTSTSTVYMELSSLRSDDTAVYYCARRGGSYFDYWGQGTLVTVSS VL: SYVLTQPPSASGTPGQSVTISCSGSTSNIGSHYVSWYQQLPGTAPRLLIYRNHQRPSGVPDRLSGSKSGTSASLAISGLRSEDEADYYCAVWDAKYRGWVFGGGTKLTVLG : 78 % (at 7 nM IgG)
